Biological target: recombinant human Axl-msFc (human, UniProt P30530 26-449)
Sequence (P30530 26-449): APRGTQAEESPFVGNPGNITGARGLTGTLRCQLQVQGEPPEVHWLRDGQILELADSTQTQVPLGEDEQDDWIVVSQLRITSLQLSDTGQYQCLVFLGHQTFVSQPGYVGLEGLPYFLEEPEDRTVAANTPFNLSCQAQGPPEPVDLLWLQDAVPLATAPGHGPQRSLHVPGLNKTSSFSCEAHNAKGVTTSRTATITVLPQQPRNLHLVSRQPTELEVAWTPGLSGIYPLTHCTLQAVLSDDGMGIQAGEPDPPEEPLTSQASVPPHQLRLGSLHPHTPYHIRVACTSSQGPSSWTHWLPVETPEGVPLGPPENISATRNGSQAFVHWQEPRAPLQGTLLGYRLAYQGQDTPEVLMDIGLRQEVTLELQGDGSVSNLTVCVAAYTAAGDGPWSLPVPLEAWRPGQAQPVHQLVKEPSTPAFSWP
Assay: ELISA; 4-P fit parameter C
property.label: EC50 (µg/mL)
Numbers only, in µg/mL.

Field EC50 (entry Ab304 (antibody, V domains shown) VH: EVQLVESGGGLVQPGGSLRLSCAASGFTFSDYWMEWVRQAPGKGLEWVGEIRNKVNNYATYYGKSVKGRFTISRDESKNSLYLQMNSLKTEDTAVYYCNTLRLFAYWGQGTTVTVSS VL: DIQMTQSPSSLSASVGDRVTITCRSSKSLLHRQGITYVYWYQQKPGKVPKLLIYRMSTLASGVPSRFSGSGSGTDFTLTISSLQPEDVATYYCGQLLENPYTFGQGTKLEIK ) reads 0.018

Origin of values: patent US20220177593A1
